Tested on: DMS 114 small cell lung
Protocol Summary: NCI tumour cell line growth inhibition, 48 h
Parameter: TGI (µM)
One number for each entry, in µM.

Example entries begin here.
Molecule	Measurement Target	Observed Measurement
Cc1cccc(C(=O)c2cccc3ccccc23)c1C(=O)O	DMS 114 small cell lung	13.8
C#CCC[C@@H]1O[C@@]1(C)CC/C=C(\C)CC/C=C/C=O	DMS 114 small cell lung	35.1
CC1=CCC[C@@]2(C)C(CC[C@@H]2C(C)/C=C/C(C)C)c2ccc(cc2C(=O)O)C[C@@H](O)CC1 (stereo not given in full)	DMS 114 small cell lung	40.3

Alright, here's another molecule for you.
What value of measured TGI is listed for CCN(CC)CCNC(=O)c1ccccc1NC(=O)C(=O)Nc1ccccc1C(=O)NCCN(CC)CC ?
79.7

Value source: PubChem BioAssay (NCI)
